- experimental-details: in vivo
- assay-setup: mouse, in vivo, po; male Swiss C.D. mice, per os, mortality after 48 hours; read-out: LD 50 per os
quantity-measured: LD50 at 48 h (mg/kg)
# output: bare number, implied unit mg/kg

Incoming: So what does the record say about LD50 at 48 h for C=C(CC)C(=O)c1ccc(OCC(=O)O)c(Cl)c1Cl [ethacrynic acid, reference compound] ?
Outgoing: 600

* * *

- experimental-details: in vivo
- assay-setup: mouse, in vivo, po; read-out: LD 50 per os
quantity-measured: LD50 at 48 h

Incoming: So what does the record say about LD50 at 48 h for `O=C(O)COc1ccc(C(=O)c2sc3ccccc3c2Cl)c(Cl)c1Cl` ?
Outgoing: > 1000 mg/kg
